# TGI per record follows
# Test system: OVCAR-3 ovarian
# assayText: NCI tumour cell line growth inhibition, 48 h

Known results for compounds:
[
  {
    "compound": "CCCCCCCCN=C(N)c1ccc(N2CCN(c3ccc(C(N)=NCCCCCCCC)cc3)CC2)cc1",
    "measuredResult": "3.2 µM"
  },
  {
    "compound": "CC(=O)N1C(=O)/C(=C\\C(=O)c2ccc([N+](=O)[O-])cc2)c2ccccc21",
    "measuredResult": "32.2 µM"
  },
  {
    "compound": "O=CC(=C(I)I)c1ccccc1",
    "measuredResult": "3.69 µM"
  },
  {
    "compound": "O=C(C1OC1c1ccc(O)cc1)C12CC3CC(CC(C3)C1)C2 (stereo not given)",
    "measuredResult": "> 64.8 µM"
  },
  {
    "compound": "O=S(=O)(O)c1ccc(O)c2ncc(Cl)cc12",
    "measuredResult": "> 100 µM"
  }
]

What value of TGI has been reported for the following compound? COCCN(C(C)=O)C1CCC2(SCCS2)c2[nH]c3ccccc3c21 (stereo not given)
> 100 µM

What value of TGI has been reported for the following compound? COC(=O)c1ccccc1CC1Cc2ccc3c(c2C1=O)CCC3 (stereo not given)
> 100 µM

What value of TGI has been reported for the following compound? COc1cc(C2C(C(=O)O)=C(CO)Oc3cc4c(cc32)OCO4)cc(OC)c1O (stereo not given)
> 100 µM

What value of TGI has been reported for the following compound? CC(=O)OCC1OC(SC2=N/C(=C\c3cc4c(=O)c5ccccc5sc4s3)C(=O)N2c2ccccc2)C(OC(C)=O)C(OC(C)=O)C1OC(C)=O (stereo not given)
> 100 µM

What value of TGI has been reported for the following compound? O=C1c2c(ccc3c2CCCC3)CC12Cc1ccc3c(c1C2=O)CCCC3
> 100 µM

###

# TGI per record follows
# Test system: CCRF-CEM leukemia
# assayText: NCI tumour cell line growth inhibition, 48 h

[
  {
    "compound": "CC1=C(C)C(=O)c2c(cc3ccccn23)C1=O",
    "TGI": "> 100 µM"
  },
  {
    "compound": "CCOC(=O)CSc1nc(N)c2c(-c3ccc(OC)c(OC)c3)c3c(nc2n1)CCCC3",
    "TGI": "> 100 µM"
  },
  {
    "compound": "CC1(C)CC(=O)c2c(C(F)(F)F)nn(-c3ccc(C(N)=O)c(NC4CCC(OC(=O)CN)CC4)c3)c2C1 (stereo not given)",
    "TGI": "> 100 µM"
  }
]

For CCRF-CEM leukemia, provide TGI of CCCCCCCCCCCC(=O)Oc1c(Cl)cc(Cl)c(OC(=O)C(=O)Oc2c(Cl)cc(Cl)c(OC(=O)CCCCCCCCCCC)c2Cl)c1Cl please.
> 100 µM

For CCRF-CEM leukemia, provide TGI of O=C(CCC(NC(=O)OCc1ccccc1)C(=O)OCc1ccccc1)Nc1ccc(OCc2ccccc2)cc1 (stereo not given) please.
> 31.6 µM

For CCRF-CEM leukemia, provide TGI of COc1cccc(-n2ncc3c(N/N=C/c4ccc(C(=O)NCCN(C)C)cc4)ncnc32)c1 please.
11.2 µM

###

# Tested on: TK-10 renal
# assayText: NCI tumour cell line growth inhibition, 48 h
# TGI per record follows

[
  {
    "compound": "CCCCCCCCCCCCCCCCN1CC2CCCCC2C1 (configuration not stated)",
    "measuredResult": "26.1 µM"
  },
  {
    "compound": "NCCn1c(=O)[nH]c(=O)[nH]c1=S",
    "measuredResult": "> 100 µM"
  },
  {
    "compound": "CC12CCC(CC1=O)C2(C)CCC(N)=O (configuration not stated)",
    "measuredResult": "> 100 µM"
  },
  {
    "compound": "Cn1c(=S)[nH]c2sc3c(c2c1=O)CCSC3",
    "measuredResult": "> 100 µM"
  }
]

What value of TGI has been reported for the following compound? O=C(COc1ccc2c(=O)cc(-c3ccccc3)oc2c1)N1CCN(c2ccccc2)CC1
> 100 µM

###

# System: OVCAR-4 ovarian
# assayText: NCI tumour cell line growth inhibition, 48 h; in the data active = GI50 below about 0.43 µM; inactive = the rest
Bench note: report the call from active, inactive

Examples with answers:
[
  {
    "compound": "CN(C)CC(=O)Nc1ccc(Cn2nnc3c2C(=O)c2nnn(Cc4ccc(NC(=O)CN(C)C)cc4)c2C3=O)cc1",
    "groupLabel": "active"
  },
  {
    "compound": "Oc1cccc2ccc(N/N=C/c3cc(CN4CCCCC4)c(O)c4ncccc34)nc12",
    "groupLabel": "active"
  },
  {
    "compound": "CCc1nccc2c1nc(-c1nonc1N)n2CC",
    "groupLabel": "inactive"
  },
  {
    "compound": "Cc1ccccc1[P+](Cc1ccccc1)(c1ccccc1)c1ccccc1",
    "groupLabel": "inactive"
  }
]

Hi, sorry to bother you, what did the test record for CN1CCC(n2cnc(-c3ccc(F)cc3)c2-c2ccnc(NCCO)n2)CC1 ?
inactive

Hi, sorry to bother you, what did the test record for COc1ccc(-c2nn3c(-c4cc(F)c(Cl)cc4Cl)nnc3s2)cc1 ?
inactive

Hi, sorry to bother you, what did the test record for COc1ccc2nc(-c3ccc(-c4noc(-c5cc(OC)c(OC)c(OC)c5)n4)cc3)[nH]c2c1 ?
inactive

Hi, sorry to bother you, what did the test record for COc1cc(C2CC(c3ccc4c(c3)OCO4)=NN2C=O)cc(OC)c1OC (centres undefined) ?
inactive

Hi, sorry to bother you, what did the test record for CC(C)c1cc(-c2n[nH]c(=O)n2-c2ccc3c(ccn3C)c2)c(O)cc1O ?
inactive

###

# Test system: SF-295 CNS
# assayText: NCI tumour cell line growth inhibition, 48 h; in the data active = GI50 below about 0.43 µM; inactive = the rest
Bench note: report the call from active, inactive

[
  {
    "compound": "O=c1cc(-c2ccccc2)[nH]c2ccccc12",
    "groupLabel": "inactive"
  }
]

Hi, sorry to bother you, what did the test record for Cc1ccc(-c2cn3ccnc3c(-c3ccc(Cl)cc3)n2)cc1 ?
active

Hi, sorry to bother you, what did the test record for CC1(C)CC(=O)c2c(C(F)(F)F)nn(-c3ccc(C(N)=O)c(NC4CCC(OC(=O)CN)CC4)c3)c2C1 (stereo not given) ?
active

Hi, sorry to bother you, what did the test record for COc1ccc2sc3c(NCCCN(C)C)nc4ccccc4c3c(=O)c2c1 ?
inactive

Hi, sorry to bother you, what did the test record for Oc1cccc2ccc(N/N=C/c3cc(CN4CCCCC4)c(O)c4ncccc34)nc12 ?
active

Hi, sorry to bother you, what did the test record for COc1ccc(/C=C2\CCCC3=C2N=C2SC(C)=NN2C3c2ccc(OC)c(OC)c2)cc1OC (stereo not given) ?
inactive

Hi, sorry to bother you, what did the test record for CCc1nccc2c1nc(-c1nonc1N)n2CC ?
inactive

Hi, sorry to bother you, what did the test record for COc1ccc(-c2nc3sc4c(c3c(=O)[nH]2)CCCCCC4)cc1 ?
inactive

Hi, sorry to bother you, what did the test record for O=C(CCCCCCC(=O)Nc1ccc(N(CCCl)CCCl)cc1)NO ?
inactive

Hi, sorry to bother you, what did the test record for O=C1/C(=C\c2c[nH]c3ccccc23)c2ccccc2N1c1c(Cl)cccc1Cl ?
inactive

Hi, sorry to bother you, what did the test record for COc1ccc(-c2ccc(/C=N/n3c(COc4ccc(Cl)cc4Cl)nn(CN4CCOCC4)c3=S)o2)c([N+](=O)[O-])c1 ?
inactive

Hi, sorry to bother you, what did the test record for CCCCCCCCCCCCCCCCN1CC2CCCCC2C1 (stereo not given) ?
inactive

Hi, sorry to bother you, what did the test record for N#Cc1c(N2CCCC2)[nH]c(=O)c(C(c2c(Cl)cccc2Cl)c2c(O)c(C#N)c(N3CCCC3)[nH]c2=O)c1O ?
inactive

Hi, sorry to bother you, what did the test record for CN1CCC(n2cnc(-c3ccc(F)cc3)c2-c2ccnc(NCCO)n2)CC1 ?
inactive

Hi, sorry to bother you, what did the test record for NCCn1c(=O)[nH]c(=O)[nH]c1=S ?
inactive

###

# System: BT-549 breast
# assayText: NCI tumour cell line growth inhibition, 48 h
measurementKind: GI50

[
  {
    "molecule": "CCOC(=O)c1cc(NS(=O)(=O)c2ccccc2)cc(C(=O)OCC)c1",
    "assayTarget": "BT-549 breast",
    "measurementKind": "GI50",
    "measuredResult": "> 100 µM"
  }
]

What value of GI50 has been reported for the following molecule? CCN(CC)CC(C)Nc1ccc([N+](=O)[O-])c2sc3ccccc3c(=O)c12 (stereo not drawn)
5.03 µM

What value of GI50 has been reported for the following molecule? COC(=O)[C@@]1(C)CC[C@]2(C)CC[C@]3(C)C4=CC=C5C(=CC(=O)C(O)=C5C)[C@]4(C)[C@@H](O)C[C@@]3(C)[C@@H]2C1
10.5 µM
